molecular target: SARS-CoV-2 spike protein (SARS-CoV-2, UniProt P0DTC2 14-1208)
Property: pKd
pKd is defined as minus the log10 of a concentration measured in mol/L.

*Q* Quick one: pKd of antibody 458 (antibody, V domains shown) VH: QVQLVESGGGVVQPGRSLRLSCAASEFTFATYAMHWVRQAPGKGLEWVALISQDGSNKHYADSVKGRFTISRDNSKNTLYLQMNSLRAEGTAIYYCARESLEAAGPPFDYWGQGTLVTVSS VL: SYELTQPPSVSVSPGQTATIICSGDKLGEKYASWYQQKPGQSPALVIYQDRKRPSGIPERFSGSNSGNTATLTISGTQAMDEADYYCQAWDSSNSVVFGGGTKLTVP ?
*A* 9.48
